biological target: Muscarinic acetylcholine receptor M1 (Homo sapiens); assay type: functional; further: assay procedure not described here
Sequence (P11229 whole entry): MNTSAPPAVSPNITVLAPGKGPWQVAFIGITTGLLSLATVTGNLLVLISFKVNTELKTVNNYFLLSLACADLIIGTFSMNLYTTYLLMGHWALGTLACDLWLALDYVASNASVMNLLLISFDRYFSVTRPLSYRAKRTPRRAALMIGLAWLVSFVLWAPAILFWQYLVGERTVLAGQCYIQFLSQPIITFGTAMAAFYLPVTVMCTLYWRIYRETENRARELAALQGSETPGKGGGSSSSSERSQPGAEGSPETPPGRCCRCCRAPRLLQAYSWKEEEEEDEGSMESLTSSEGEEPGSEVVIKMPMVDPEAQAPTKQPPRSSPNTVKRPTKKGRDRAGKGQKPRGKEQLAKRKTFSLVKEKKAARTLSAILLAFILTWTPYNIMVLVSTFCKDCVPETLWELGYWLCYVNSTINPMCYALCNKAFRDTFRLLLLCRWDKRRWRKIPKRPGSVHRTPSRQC
Please respond with reported AC50 for every item in the list.

Dear colleague, could you please provide AC50 for the molecules listed below?
1. Nc1ncnc2c1ncn2[C@@H]1O[C@H](COP(=O)(O)O)[C@@H](O)[C@H]1O [ADENOSINE PHOSPHATE]
2. CO/N=C(\C(=O)N[C@@H]1C(=O)N2C(C(=O)OCOC(=O)C(C)(C)C)=C(C)CS[C@H]12)c1csc(N)n1
3. CCCCCCC(C)(C)c1cc(O)c2c(c1)OC(C)(C)C1CCC(=O)CC21 (centres undefined) [NABILONE]
4. CN1C(=O)N(C)C2C1N(C)C(=O)N2C (centres undefined) [MEBICAR]

result:
1: > 30 µM; 2: > 30 µM; 3: > 30 µM; 4: > 30 µM

----------
Neuronal acetylcholine receptor subunit alpha-4 (Homo sapiens, UniProt P43681) data, read-out AC50; further: assay procedure not described here
Sequence (P43681 whole entry): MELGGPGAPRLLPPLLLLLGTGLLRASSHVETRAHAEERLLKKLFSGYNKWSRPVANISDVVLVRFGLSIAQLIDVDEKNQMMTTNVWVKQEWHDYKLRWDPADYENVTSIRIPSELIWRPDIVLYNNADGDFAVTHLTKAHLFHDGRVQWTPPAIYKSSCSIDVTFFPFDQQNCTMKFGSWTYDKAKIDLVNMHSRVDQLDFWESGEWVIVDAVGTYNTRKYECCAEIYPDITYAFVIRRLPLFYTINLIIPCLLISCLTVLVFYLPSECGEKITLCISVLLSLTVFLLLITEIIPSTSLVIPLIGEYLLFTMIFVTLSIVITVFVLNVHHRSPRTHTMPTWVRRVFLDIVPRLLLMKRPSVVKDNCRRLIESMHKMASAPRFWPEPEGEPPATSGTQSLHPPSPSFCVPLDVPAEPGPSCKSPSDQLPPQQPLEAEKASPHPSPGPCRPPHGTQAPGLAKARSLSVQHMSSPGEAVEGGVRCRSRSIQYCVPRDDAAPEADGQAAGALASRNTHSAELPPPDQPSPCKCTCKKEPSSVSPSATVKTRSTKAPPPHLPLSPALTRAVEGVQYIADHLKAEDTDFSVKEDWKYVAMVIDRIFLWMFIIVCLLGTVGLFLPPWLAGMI

NC(=O)C[S+]([O-])C(c1ccccc1)c1ccccc1 (stereo not given)	> 10 µM

Dear colleague, could you please provide AC50 for the molecules listed below?
1. Cc1c(Cl)cccc1Nc1ccccc1C(=O)O
2. CC(=O)NS(=O)(=O)c1ccc(N)cc1 [SULFACETAMIDE]
3. CC(C)(Oc1ccc(C2CC2(Cl)Cl)cc1)C(=O)O (stereo not given) [CIPROFIBRATE]
4. NS(=O)(=O)c1cc(-c2nnn[nH]2)c(NCc2cccs2)cc1Cl [AZOSEMIDE]

result:
1: > 30 µM; 2: > 10 µM; 3: > 30 µM; 4: > 30 µM

----------
Please respond with reported AC50 for every item in the list.
molecular target: Alpha-2B adrenergic receptor (Homo sapiens); further: assay procedure not described here
Sequence (P18089 whole entry): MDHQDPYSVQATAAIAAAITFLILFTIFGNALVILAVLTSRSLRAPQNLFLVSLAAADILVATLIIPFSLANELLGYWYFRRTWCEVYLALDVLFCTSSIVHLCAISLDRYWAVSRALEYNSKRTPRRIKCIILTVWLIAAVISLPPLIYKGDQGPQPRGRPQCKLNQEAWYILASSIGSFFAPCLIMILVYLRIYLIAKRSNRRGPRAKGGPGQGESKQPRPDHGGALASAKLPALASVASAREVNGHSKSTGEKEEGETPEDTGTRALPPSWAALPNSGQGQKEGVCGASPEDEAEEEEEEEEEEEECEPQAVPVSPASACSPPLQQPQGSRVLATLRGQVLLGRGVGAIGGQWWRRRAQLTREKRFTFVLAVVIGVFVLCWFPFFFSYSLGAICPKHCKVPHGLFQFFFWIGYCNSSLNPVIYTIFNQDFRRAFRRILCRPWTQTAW

CC(C(O)c1ccc(O)cc1)N1CCC(Cc2ccccc2)CC1 (centres undefined)	0.44 µM
CC(C)NCC(O)COc1ccc(COCCOC(C)C)cc1 (centres undefined)	> 10 µM
COC(=O)N[C@H](C(=O)N1CCC[C@H]1c1nc(-c2ccc(-c3ccc(-c4c[nH]c([C@@H]5CCCN5C(=O)[C@@H](NC(=O)OC)C(C)C)n4)cc3)cc2)c[nH]1)C(C)C	> 30 µM

Now consider the entry below.
query: Fill in: AC50 of COc1ccc(C(=O)NCc2ccc(OCCN(C)C)cc2)cc1OC [ITOPRIDE] is ___
result: > 30 µM

----------
Please respond with reported AC50 for every item in the list.
molecular target: Melanocortin receptor 4 (Homo sapiens); further: assay procedure not described here
Sequence (P32245 whole entry): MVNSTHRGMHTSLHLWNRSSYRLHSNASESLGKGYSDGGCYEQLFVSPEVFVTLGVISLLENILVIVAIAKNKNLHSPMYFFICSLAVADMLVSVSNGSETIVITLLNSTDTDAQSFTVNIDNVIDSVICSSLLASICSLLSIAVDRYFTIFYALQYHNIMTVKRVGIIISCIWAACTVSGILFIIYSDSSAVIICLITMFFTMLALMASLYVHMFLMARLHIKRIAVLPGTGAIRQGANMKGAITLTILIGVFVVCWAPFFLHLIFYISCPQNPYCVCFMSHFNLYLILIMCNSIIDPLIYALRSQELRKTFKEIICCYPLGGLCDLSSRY

CN1CC(=O)N2[C@H](c3ccc4c(c3)OCO4)c3[nH]c4ccccc4c3C[C@@H]2C1=O	> 30 µM
COC(=O)N[C@H](C(=O)N[C@@H](Cc1ccccc1)[C@@H](O)CN(Cc1ccc(-c2ccccn2)cc1)NC(=O)[C@@H](NC(=O)OC)C(C)(C)C)C(C)(C)C	> 30 µM
CN1CCC2=C(C1)C(c1ccccc1)c1ccccc12 (configuration not stated)	> 10 µM
O=P(O)(O)C(O)(Cc1cccnc1)P(=O)(O)O	> 30 µM
CC(C)C(=O)Nc1ccc([N+](=O)[O-])c(C(F)(F)F)c1 [FLUTAMIDE]	> 30 µM
NS(=O)(=O)c1cc(Cl)c(Cl)c(S(N)(=O)=O)c1 [DICHLORPHENAMIDE]	> 10 µM
CCOC(=O)[C@H](CCc1ccccc1)N[C@@H](C)C(=O)N1CCC[C@H]1C(=O)O	> 30 µM
Cc1ccc(C(=O)c2cc(O)c(O)c([N+](=O)[O-])c2)cc1	> 10 µM

Dear colleague, could you please provide AC50 for the compounds listed below?
1. NS(=O)(=O)c1cc2c(cc1Cl)NCNS2(=O)=O [HYDROCHLOROTHIAZIDE]
2. Cc1cc(-c2ccccc2)nnc1NCCN1CCOCC1
3. CCc1ccc(CCOc2ccc(CC3SC(=O)NC3=O)cc2)nc1 (configuration not stated)

result:
["> 30 µM", "> 30 µM", "> 30 µM"]

Dear colleague, could you please provide AC50 for the compounds listed below?
1. NC[C@H]1O[C@H](O[C@H]2[C@H](O)[C@@H](O[C@H]3O[C@H](CO)[C@@H](O)[C@H](N)[C@H]3O)[C@H](N)C[C@@H]2N)[C@H](O)[C@@H](O)[C@@H]1O
2. COc1cc(Nc2c(C#N)cnc3cc(OCCCN4CCN(C)CC4)c(OC)cc23)c(Cl)cc1Cl
3. CN(C)[C@@H]1C(O)=C(C(N)=O)C(=O)[C@@]2(O)C(O)=C3C(=O)c4c(O)ccc(Cl)c4[C@@H](O)[C@H]3C[C@@H]12
4. CCCCCN(C)CCC(O)(P(=O)(O)O)P(=O)(O)O

result:
1. > 10 µM
2. 17.7 µM
3. > 10 µM
4. > 30 µM

Dear colleague, could you please provide AC50 for the compounds listed below?
1. CN1CCCN=C1COC(=O)C(O)(c1ccccc1)C1CCCCC1 (configuration not stated)
2. CC(=O)NS(=O)(=O)c1ccc(N)cc1 [SULFACETAMIDE]

result:
["> 10 µM", "> 10 µM"]
